system name: GABA-A receptor; anion channel
protocol details: The compound was tested for benzodiazepine receptor binding affinity
measured quantity: Log 1/Ki

>>> test_result("O=C(NCc1cccc(O)c1)C(=O)c1c[nH]c2ccccc12")
6.09
>>> test_result("O=C(NCc1ccc(O)cc1)C(=O)c1c[nH]c2ccc(Cl)cc12")
6.82
>>> test_result("COc1cccc(CNC(=O)C(=O)c2c[nH]c3ccc([N+](=O)[O-])cc23)c1")
7.42
>>> test_result("O=C(NCc1ccc(Cl)cc1)C(=O)c1c[nH]c2ccccc12")
7.17
>>> test_result("O=C(NCc1ccccc1F)C(=O)c1c[nH]c2ccccc12")
6.18
>>> test_result("O=C(NCc1ccccc1Cl)C(=O)c1c[nH]c2ccccc12")
5.59
>>> test_result("O=C(NCc1ccccc1)C(=O)c1c[nH]c2ccc([N+](=O)[O-])cc12")
6.93

// provenance: ChEMBL document CHEMBL1132536
